tested on: Wild type; assay: S. aureus survival, RN4220 and DeltatarO strains – OD600, teichoic acid synthesis inhibitors, primary screen (AID 463173); conditions: S. aureus RN4220 wild type/DeltatarO growth, OD600, 18 h, screened at 18.75 µg/mL (by protocol)
Among all 52,000 compounds or so, about 1,700 (3.3%) were called active. Cut-off read from the data, not from the text of the source: active = survival mostly below about 52% (no sharp cut-off); inactive = mostly above about 56%. Many of the other results were omitted from the sample, so actives are more common in it than they were.
Allowed answers: active, inactive

Consider the following illustrative entries.
compound | assignedLabel
CCN(CC)C(=O)c1ccc2c(c1)N(Cc1c(F)cccc1Cl)C(=O)c1ccccc1S2 | active
Cc1ccccc1C(=O)NCc1ccc2c(c1)CCN2C(=O)c1ccccc1 | inactive
COc1cccc(N2CCN(C(=O)CCCn3c(=O)[nH]c4ccc(Br)cc4c3=O)CC2)c1 | inactive
Cc1cc(C)cc(OC(C)C(=O)Nc2nonc2-c2ccc(Br)cc2)c1 (stereo unspecified) | active
COc1ccc(-c2nc(SCC(=O)Nc3ccc4c(c3)OCO4)c(-c3ccc(F)cc3)[nH]2)cc1OC | inactive

Hey, what did the test say about COc1ccc(-c2ccc(NS(=O)(=O)c3cccc(Cl)c3)cc2)nn1 ?
inactive

====

test system: Wild type; assay: S. aureus survival, RN4220 and DeltatarO strains – OD600, teichoic acid synthesis inhibitors, primary screen (AID 463173); settings: S. aureus RN4220 wild type/DeltatarO growth, OD600, 18 h, screened at 18.75 µg/mL (by protocol)
Screen size: about 52,000 compounds; about 1,700 (3.3%) were called active. Cut-off read from the data, not from the text of the source: active = survival mostly below about 52% (no sharp cut-off); inactive = mostly above about 56%. The full list was thinned out, with actives kept by preference.
// one of active, inactive, no free text

molecule | assignedLabel
COc1ccc(-c2nc(C)c(CCNC(=O)c3cccs3)s2)cc1OC | inactive

Give the logged outcome of this assay for the following molecule: CCN1CCC(N(Cc2cccc(OC)c2)C(=O)Nc2ccc(C)cc2Cl)CC1
inactive

====

system: Wild type; test: S. aureus survival, RN4220 and DeltatarO strains – OD600, teichoic acid synthesis inhibitors, primary screen (AID 463173); conditions: S. aureus RN4220 wild type/DeltatarO growth, OD600, 18 h, screened at 18.75 µg/mL (by protocol)
Among all 52,000 compounds or so, about 1,700 (3.3%) were called active. Rule as the data show it: active = survival mostly below about 52% (no sharp cut-off); inactive = mostly above about 56%. The entries come from a sample that favours actives as a whole.
Outcomes you can answer with include only these: Y = active, N = inactive

Known results for compounds:
compound | studyTarget | assignedLabel
Cc1ccc(-c2nnc(SCc3ccccc3C#N)o2)cc1 | Wild type | N
Cc1ccc(CSc2nnc(-c3ccc(O)cc3)o2)cc1 | Wild type | N
N#Cc1ccccc1CSc1nnc(-c2ccc(Br)cc2)o1 | Wild type | N
CCOc1ccccc1NC(=O)Cn1c(=O)ccc2cc(S(=O)(=O)N3CCCC3)ccc21 | Wild type | Y

Identify the outcome logged in this assay for the compound shown: CSc1oc(-c2ccc(F)cc2)nc1S(=O)(=O)c1ccc(Br)cc1
N

Would you mind telling me which call this test gave CCSc1oc(-c2ccc(F)cc2)nc1S(=O)(=O)c1ccc(C)cc1 ?
N

Outcome? CCOC(=O)CSc1nnc(-c2ccc(OC)cc2)o1
N

How did this test come out for CCC(C)S(=O)(=O)c1oc(-c2ccc(F)cc2)nc1S(=O)(=O)c1ccc(F)cc1 (configuration not stated) ?
N

Hello, I am checking results. What call was entered for CCc1ccccc1NC(=O)Cn1c(=O)ccc2cc(S(=O)(=O)N3CCCC3)ccc21 ?
N

# fetch the recorded call for COc1cccc(C(=O)c2sc(Nc3ccc(C)cc3C)c(S(=O)(=O)c3ccccc3)c2N)c1 here
N

Hi, sorry to bother you, what did the test record for Cc1ccc(-c2nnc(SCc3ccccc3C)o2)cc1 ?
Y

Hello, I am checking results. What call was entered for CS(=O)(=O)c1oc(-c2ccc(F)cc2)nc1S(=O)(=O)c1ccc(Cl)cc1 ?
Y

Name the outcome recorded for O=C(Nc1ccccc1F)c1oc2ccccc2c1NC(=O)c1c(F)cccc1F in the assay.
N

For this compound, state the assay outcome: O=C(NCC(c1ccc2c(c1)OCO2)N1CCN(c2ccc(F)cc2)CC1)c1cccc([N+](=O)[O-])c1 (configuration not stated)
N

Kindly provide the recorded test outcome for the following compound: Cc1ccc(-c2nnc(Nc3ccc(Br)cc3)c3ccccc23)cc1S(=O)(=O)N1CCCCC1
N

Dear colleague, could you share the recorded outcome for O=C(Nc1ccc2[nH]c(=O)c(=O)[nH]c2c1)c1cccc(F)c1 when you have a moment?
N

Which result was noted for this compound in the test: O=c1nc2sc3ccccc3n2c(=O)n1-c1ccc(Cl)c(Cl)c1
N

====

test system: Wild type; test: S. aureus survival, RN4220 and DeltatarO strains – OD600, teichoic acid synthesis inhibitors, primary screen (AID 463173); conditions: S. aureus RN4220 wild type/DeltatarO growth, OD600, 18 h, active compounds read low, screened at 18.75 µg/mL (by protocol)
Among all 52,000 compounds or so, about 1,700 (3.3%) were called active. This excerpt belongs to a sample that is enriched for actives.
We begin with a simple list: items and their reported survival.
Response body: numeric value in %, unit text excluded.

So what does the record say about survival for O=C(Nc1ccc(F)c(Cl)c1)N1CCN(C(=O)c2nsc3ccccc23)CC1 ?
70

For the compound shown here, COC(=O)c1cc(S(=O)(=O)N2CCN(c3cccc(C)c3)C(C)C2)c[nH]1 (stereo not drawn) , give the reported survival.
98

Look at this compound and give its reported survival. Cc1cc(Nc2cccc(C(F)(F)F)c2)nc2ccc(NC(=O)Cc3ccc(Cl)cc3)cc12
78

What measured survival goes with CCN(C(=O)C(NS(=O)(=O)c1cccc2nsnc12)c1ccccc1)c1ccccc1 (stereo not drawn) ?
117

Fill in: survival of Cc1ccc(NC(=O)N2CCN(C(=O)c3nsc4ccccc34)CC2)cc1C is ___
-6

Dear colleague, I am looking for the recorded survival of the following compound: Fc1ccc(Nc2nc3nonc3nc2Nc2cccc(C(F)(F)F)c2)cc1
-1

GET /values?readout=survival&item= O=C(Nc1ccccc1)N1CCN(C(=O)c2nsc3ccccc23)CC1
85

# lookup: survival of COc1cccc(N2CCN(C(=O)c3cnc4c(-c5ccc(F)cc5)c(C)nn4c3C)CC2)c1
-6

====

tested on: Wild type; assay: S. aureus survival, RN4220 and DeltatarO strains – OD600, teichoic acid synthesis inhibitors, primary screen (AID 463173); conditions: S. aureus RN4220 wild type/DeltatarO growth, OD600, 18 h, active compounds read low, screened at 18.75 µg/mL (by protocol)
Hit rate of the full screen: of about 52,000 compounds, about 1,700 (3.3%) were called active. Many of the other results were omitted from the sample, so actives are more common in it than they were.
endpointLabel: survival (%)
API: value field is a number in %; no unit string.

molecule | endpointResult
Cc1ccc(-n2cc(-c3ccccc3)c3c(N4CCCCC4)ncnc32)cc1 | 80

Need survival of Cc1ccc(-c2ccc(=O)n(CC(=O)NCCc3ccccc3)n2)cc1 , thanks.
65

Given the molecule Cc1csc2nc(COC(=O)c3ccc(F)cc3)cc(=O)n12 , what is its reported survival?
81

// query survival value for entry COc1ccc(Cn2ccnc2SCC(=O)NCc2ccco2)cc1
70

So what's the measured survival for this one? CCOCCCNC(=O)C(c1ccc(OC)cc1)N(Cc1ccc2c(c1)OCO2)C(=O)c1ccc(NC(C)=O)cc1 (centres undefined)
69

# lookup: survival of COc1ccc(CNCCC(c2ccc(C)cc2)c2ccco2)cc1 (centres undefined)
72

Fill in the blank: the reported survival of CCCCNc1nc2c(S(=O)(=O)c3ccc(Cl)cc3)nnn2c2ccsc12 is ____.
89

Requested field: survival. Item: Cc1csc2nc(COC(=O)c3ccccc3NC(=O)c3ccc(C(C)(C)C)cc3)cc(=O)n12
55

# query: survival of entry Cc1ccc(CNC(=O)C(=O)Nc2c3c(nn2-c2ccccc2)CSC3)cc1
82

I am curious: what survival value has been reported for Cc1ccc(CCNC(=O)c2cc3c(=O)n(C)c4ccccc4c3n2C)cc1 ?
80

Any idea what its survival is? The molecule is CCC(=O)N(CCC(c1ccccc1)c1ccc2c(c1)OCO2)Cc1ccc(OC(C)C)cc1 (centres undefined)
1

Any idea what survival was measured for O=C(OCc1cc(=O)n2nc(C3CCCCC3)sc2n1)c1ccccc1Cl ?
59

====

system: Wild type; experiment: S. aureus survival, RN4220 and DeltatarO strains – OD600, teichoic acid synthesis inhibitors, primary screen (AID 463173); conditions: S. aureus RN4220 wild type/DeltatarO growth, OD600, 18 h, screened at 18.75 µg/mL (by protocol)
The campaign covered roughly 52,000 compounds. About 1,700 (3.3%) were called active. Cut-off read from the data, not from the text of the source: active = survival mostly below about 52% (no sharp cut-off); inactive = mostly above about 56%. This is one part of a sample in which actives are shown more often than they occur.
Hi there, use one of these labels in your reply, thanks! YES = active, NO = inactive

compound | assignedLabel
Cc1ccccc1Nc1c(-c2ccc(Cl)s2)nc2cccc(C)n12 | NO
Cc1ccc(N2CC(c3nc4ccccc4n3CCC3CCCCC3)CC2=O)cc1 (stereo unspecified) | NO
COc1ccc(-n2c(=O)c3c(c4cc(OC)ccc4n3C)n(CC(=O)NCC3CCCO3)c2=O)cc1 (stereo unspecified) | NO
COC(=O)c1ccc(NC(=O)N2CCC(CN3CCc4ccccc4C3)CC2)cc1 | YES
Cc1ccc(-c2nc3ccc(Cl)cn3c2Nc2ccccc2C)s1 | NO
Cc1cccc(C)c1-n1ncc(C(=O)NCCN2CCOCC2)c1C1CCN(C(=O)OC(C)(C)C)CC1 | NO

Identify the outcome logged in this assay for the compound shown: CC(C)(C)OC(=O)N1CCC(c2c(C(=O)NCCN3CCOCC3)cnn2-c2ccc(F)cc2)CC1
NO

I would be grateful if you could indicate the recorded call for CC(C)(C)OC(=O)N1CCC(c2c(C(=O)NC3CCN(Cc4ccccc4)CC3)cnn2-c2cccc(F)c2)CC1 .
NO

Short answer needed: outcome of this test for O=C(Nc1cccc(C(=O)OCc2cc(=O)n3nc(C4CC4)sc3n2)c1)c1ccc(F)cc1 ?
NO

Name the outcome recorded for CCOC(=O)N1CCC(NC(=O)c2cnn(-c3ccc(F)cc3F)c2C2CCN(C(=O)OC(C)(C)C)CC2)CC1 in the assay.
NO

Recorded test outcome, item CCc1ccccc1N1CC(c2nc3ccccc3n2CCC2CCCCC2)CC1=O (stereo unspecified)
YES

Assay outcome for CC(C)(C)OC(=O)N1CCC(c2c(C(=O)NCCN3CCc4ccccc4C3)cnn2-c2ccc(F)cc2F)CC1 : what was it?
NO

Recorded test outcome, item Cc1cccc(NC(=O)N2CCC(CN3CCc4ccccc4C3)CC2)c1C
YES

# outcome recorded in this test, key = Cc1cccc(NC(=O)N2CCC(CN3CCCCCC3)CC2)c1C
NO

What outcome does the record of this test show for O=C(NCC1CCCO1)C1CC(=O)N(c2ccccc2)C1 (stereo unspecified) ?
NO

Could you please tell me the result logged for Cc1ccccc1Nc1c(-c2ccco2)nc2c(C)cccn12 in this assay?
YES

Status in this test for C/C(=N\Nc1nc2sc3c(c2c2ncnn12)CC(C)(C)OC3)C(=O)O ?
NO

Check the results log: what was the call for COc1ccccc1OCCCn1c(C2CC(=O)N(c3ccccc3Cl)C2)nc2ccccc21 (stereo unspecified) ?
NO

Recorded test outcome, item O=C(COc1ccccc1)Nc1ccc(C(=O)OCc2cc(=O)n3nc(C4CC4)sc3n2)cc1
NO

Where do the numbers come from? From PubChem BioAssay AID463173.
